For each of the compounds below, state its Emax.
Tested on: IL-6 in A549 cells stimulated with IL-1β
test: A549 Cell Assay to Measure Inflammation Markers (inhibition of IL-1β-induced IL-6)
Assay type: cell-based
condition_info: Homo sapiens, A549, A549 Cell Assay to Measure Inflammation Markers; intrinsic activity, Emax class ranges

Form: compound = CCn1nc(-c2ccccn2)c2c1NCCCC2c1ccc(C(=O)Nc2cccnc2C)cc1C (stereo not shown) [F.7] ; Emax = > 70%

Form: compound = Cc1cc(Br)ccc1[C@H]1SC[C@H](CC#N)Nc2c1c(-c1ccccn1)nn2C (racemic) ; Emax = > 50%

Form: compound = Cn1nc(-c2ccccn2)c2c1NCCSC2c1ccc(C(=O)Nc2cccnc2)cc1Cl (stereo not shown) [H.3] ; Emax = < 50%

Form: compound = Cn1nc(-c2ccccn2)c2c1NCCS(=O)(=O)C2c1ccc(Cl)cc1Cl (stereo not shown) [L.3] ; Emax = < 50%

Form: compound = CC1=Nc2c(c(-c3ccccn3)nn2C)C(c2ccc(Cl)cc2C)SC1 (stereo not shown) ; Emax = < 50%

Form: compound = Cc1cc(Br)ccc1C1SCC(C#N)Nc2c1c(-c1ccccn1)nn2C (racemic) ; Emax = > 60%

Form: compound = Cc1ncccc1NC(=O)c1ccc(C2SCCNc3c2c(-c2ccccn2)nn3C)c(Cl)c1 (stereo not shown) [F.1] ; Emax = > 70%

Form: compound = Cn1nc(-c2ccccn2)c2c1NCC(C)(C)SC2c1ccc(Cl)cc1Cl (stereo not shown) [D.32] ; Emax = < 50%

Form: compound = Cc1cc(Cl)ccc1C1SCCNc2c1c(O)nn2C (stereo not shown) [D.73] ; Emax = < 50%

Form: compound = Cc1ncccc1NC(=O)c1cc(C2SCCNc3c2c(-c2ccccn2)nn3C)c(C)s1 (stereo not shown) [F.6] ; Emax = < 50%

Form: compound = CCn1nc(-c2ccccn2)c2c1NCCSC2c1ccc(Br)cc1C (stereo not shown) [D.30] ; Emax = > 70%

Form: compound = Cc1cc(Cl)ccc1C1SCCNc2c1c(-c1ccccn1)nn2C(C)C (stereo not shown) [D.105] ; Emax = > 60%

Form: compound = Cc1nn(C)c2c1C(c1ccc(Cl)cc1Cl)SC(C)(C)CN2C (stereo not shown) ; Emax = < 50%

Form: compound = COC(=O)c1ccc(C)c(C2SCCNc3c2c(-c2ccccn2)nn3C)c1 (stereo not shown) [E.3] ; Emax = < 50%

Form: compound = Cc1cc(Br)ccc1C1SC(C)CNc2c1c(C)nn2C (stereo not shown) [D.62] ; Emax = < 50%

Form: compound = Cc1ccc(C2SCCNc3c2c(-c2ccccn2)nn3C)c(Cl)c1 (stereo not shown) ; Emax = < 50%

Form: compound = Cc1cc(C#CCO)ccc1[C@@H]1SC[C@@H](C)Nc2c1c(-c1ccccn1)nn2C (single isomer, unassigned) [M.70] ; Emax = < 50%

Form: compound = Cc1cc(OC(F)(F)F)ccc1C1SCCNc2c1c(-c1ccccn1)nn2C (stereo not shown) [D.12] ; Emax = < 50%

Form: compound = Cn1nc(C2CC2)c2c1NCC(C)(C)SC2c1ccc(Cl)cc1Cl (stereo not shown) [D.74] ; Emax = < 50%

Form: compound = Cn1nc(-c2ccccn2)c2c1NCCSC2c1ccc(Cl)cc1 (stereo not shown) [D.23] ; Emax = < 50%

Form: compound = Cc1cc(Cl)ccc1C1SCC(C)Nc2c1c(-c1ccccn1)nn2C (racemic) ; Emax = > 70%

Form: compound = CCn1nc(-c2ccccn2)c2c1NCCSC2c1ccc(C(=O)Nc2cccnc2Cl)cc1C (stereo not shown) [S.10] ; Emax = > 70%

Form: compound = Cc1c(Br)cccc1C1SC(C)(C)CNc2c1c(C1CC1)nn2C (stereo not shown) [D.69] ; Emax = < 50%

Form: compound = Cc1cc(F)ccc1C1SC(C)(C)CNc2c1c(C1CC1)nn2C (stereo not shown) [D.56] ; Emax = < 50%

Form: compound = Cc1nn(C)c2c1C(c1ccc(Cl)cc1Cl)SC(C)(C)C(=O)N2C (stereo not shown) ; Emax = < 50%

Form: compound = Cc1cc(C#N)ccc1C1SCCNc2c1c(-c1ccccn1)nn2C (single isomer, unassigned) [M.20] ; Emax = > 70%

Form: compound = Cn1nc(-c2ccccn2)c2c1NCCSC2c1ccc(Cl)cc1C(F)(F)F (stereo not shown) [D.3] ; Emax = < 50%

Form: compound = Cc1cc(O)ccc1C1SCCNc2c1c(-c1ccccn1)nn2C (stereo not shown) [D.42] ; Emax = > 50%

Form: compound = Cc1cc(C(N)=O)ccc1C1SC(C)(C)CNc2c1c(C)nn2C (stereo not shown) [I.4] ; Emax = < 50%

Form: compound = Cn1nc(C(C)(C)C)c2c1NCCSC2c1ccc(Cl)cc1Cl (stereo not shown) [D.85] ; Emax = < 50%

Form: compound = Cc1cc(Cl)ccc1C1SCCNc2c1c(C1CCCO1)nn2C (stereo not shown) [D.72] ; Emax = < 50%

Form: compound = Cc1cc(OCc2cccnc2)ccc1C1SCCNc2c1c(-c1ccccn1)nn2C (stereo not shown) ; Emax = < 50%

Form: compound = Cc1cc(Cl)ccc1C1SC(C)(C)CNc2c1c(C1CC1)nn2C (stereo not shown) [D.45] ; Emax = > 60%

Form: compound = Cc1cc(Br)ccc1[C@H]1SC[C@H](C(F)(F)F)Nc2c1c(-c1ccccn1)nn2C (racemic) ; Emax = < 50%

Form: compound = Cc1cc(C#N)ccc1[C@@H]1S[C@@H](C)CNc2c1c(C1CC1)nn2C (racemic) [G.4] ; Emax = < 50%

Form: compound = Cn1nc(-c2ccc(Cl)cc2)c2c1NCCSC2c1ccc(Cl)cc1Cl (stereo not shown) [D.82] ; Emax = < 50%

Form: compound = Cn1nc(-c2ccccn2)c2c1NCCSC2c1ccccc1Cl (stereo not shown) ; Emax = < 50%

Form: compound = Cc1nn(C)c2c1C(c1ccc(Cl)cc1Cl)SC(C)(C)CN2 (stereo not shown) [D.4] ; Emax = < 50%

Form: compound = Cc1cc(Cl)ccc1[C@@H]1SC[C@@H](C)Nc2c1c(-c1ccccn1)nn2C ; Emax = > 70%

Form: compound = Cc1ccccc1C1SCCNc2c1c(-c1ccccn1)nn2C (stereo not shown) [D.14] ; Emax = < 50%

---

Test system: IL-6 in A549 cells stimulated with IL-1β
test: A549 Cell Assay to Measure Inflammation Markers (inhibition of IL-1β-induced IL-6)
Assay type: cell-based
condition_info: Homo sapiens, A549, A549 Cell Assay to Measure Inflammation Markers; intrinsic activity, Emax class ranges
metric_name: Emax

Lab entry: IL-6 in A549 cells stimulated with IL-1β assay, compound Cc1ncccc1NC(=O)c1ccc(C2SC(C)(C)CNc3c2c(C)nn3C)c(Cl)c1 (single isomer, unassigned) , Emax = < 50%

Lab entry: IL-6 in A549 cells stimulated with IL-1β assay, compound Cc1cc(CCC(C)(C)O)ccc1[C@@H]1SC[C@H](C)Nc2c1c(-c1ccccn1)nn2C (single isomer, unassigned) , Emax = > 60%

Lab entry: IL-6 in A549 cells stimulated with IL-1β assay, compound Cc1nn(CC(O)C(F)(F)F)c2c1C(c1ccc(Cl)cc1Cl)SC(C)(C)CN2 (single isomer, unassigned) , Emax = < 50%

Lab entry: IL-6 in A549 cells stimulated with IL-1β assay, compound CC(=O)N1CCC(C2SCCNc3c2c(-c2ccccn2)nn3C)CC1 (stereo not shown) , Emax = < 50%

Lab entry: IL-6 in A549 cells stimulated with IL-1β assay, compound Cc1cc(C(=O)Nc2cccnc2C)ccc1[C@H]1CC[C@@](O)(C(F)(F)F)Cc2c1c(-c1ccccn1)nn2C (racemic) , Emax = > 70%

Lab entry: IL-6 in A549 cells stimulated with IL-1β assay, compound Cn1nc(-c2cccs2)c2c1NCCSC2c1ccc(Cl)cc1Cl (stereo not shown) , Emax = < 50%

Lab entry: IL-6 in A549 cells stimulated with IL-1β assay, compound Cc1cc(Cl)ccc1C1SCC(C(C)C)Nc2c1c(-c1ccccn1)nn2C (stereo not shown) , Emax = < 50%

Lab entry: IL-6 in A549 cells stimulated with IL-1β assay, compound Cn1nc(-c2ccccn2)c2c1NCCSC2c1ccncc1Cl (stereo not shown) , Emax = < 50%

Lab entry: IL-6 in A549 cells stimulated with IL-1β assay, compound COC(=O)c1ccc(C2SCC(C)Nc3c2c(-c2ccccn2)nn3C)c(C)c1 (stereo not shown) , Emax = > 50%

Lab entry: IL-6 in A549 cells stimulated with IL-1β assay, compound Cn1nc(-c2ccccn2)c2c1NCCSC2c1ccc(Br)cc1Cl (stereo not shown) , Emax = < 50%

Lab entry: IL-6 in A549 cells stimulated with IL-1β assay, compound CCc1cc(Cl)ccc1C1SCCNc2c1c(-c1ccccn1)nn2C (stereo not shown) , Emax = > 50%

Lab entry: IL-6 in A549 cells stimulated with IL-1β assay, compound Cc1cc(C(=O)Nc2cccnc2)ccc1C1SC(C)(C)CNc2c1c(C)nn2C (stereo not shown) , Emax = < 50%

Lab entry: IL-6 in A549 cells stimulated with IL-1β assay, compound COc1ccc(C)c(C2SC(C)(C)CNc3c2c(C2CC2)nn3C)c1 (stereo not shown) , Emax = < 50%

Lab entry: IL-6 in A549 cells stimulated with IL-1β assay, compound Cc1cc(C(F)(F)F)ccc1C1SCCNc2c1c(-c1ccccn1)nn2C (stereo not shown) , Emax = < 50%

Lab entry: IL-6 in A549 cells stimulated with IL-1β assay, compound Cc1cc(Cl)ccc1C1SCCNc2nn(C)cc21 (stereo not shown) , Emax = < 50%

Lab entry: IL-6 in A549 cells stimulated with IL-1β assay, compound Cc1cc(C#CCCO)ccc1[C@@H]1SC[C@H](C)Nc2c1c(-c1ccccn1)nn2C (single isomer, unassigned) , Emax = < 50%

Lab entry: IL-6 in A549 cells stimulated with IL-1β assay, compound Cc1cc(Cl)ccc1C1SCCNc2c1c(C)nn2C (stereo not shown) , Emax = < 50%

Lab entry: IL-6 in A549 cells stimulated with IL-1β assay, compound Cc1cc(Br)ccc1C1SCCNc2c1c(-c1ccccn1)nn2C (stereo not shown) , Emax = > 50%

Lab entry: IL-6 in A549 cells stimulated with IL-1β assay, compound CCn1nc(-c2ccccn2)c2c1N[C@@H](C)CS[C@H]2c1ccc(C(N)=O)cc1C (single isomer, unassigned) , Emax = > 50%

Lab entry: IL-6 in A549 cells stimulated with IL-1β assay, compound Cc1cc(Br)ccc1C1SC(C)(C)CNc2c1c(C)nn2C (stereo not shown) , Emax = > 50%

Lab entry: IL-6 in A549 cells stimulated with IL-1β assay, compound CCn1nc(-c2ccccn2)c2c1N[C@H](C)CS[C@H]2c1ccc(CCCO)cc1C (single isomer, unassigned) , Emax = > 70%

Lab entry: IL-6 in A549 cells stimulated with IL-1β assay, compound Cc1cc(C(=O)Nc2cccnc2C)sc1C1SCCNc2c1c(-c1ccccn1)nn2C (stereo not shown) , Emax = < 50%

Lab entry: IL-6 in A549 cells stimulated with IL-1β assay, compound CN(C)c1ccc(-c2nn(C)c3c2C(c2ccc(Cl)cc2Cl)SCCN3)cc1 (stereo not shown) , Emax = < 50%

Lab entry: IL-6 in A549 cells stimulated with IL-1β assay, compound Cc1nn(C)c2c1C(c1ccc(Cl)cc1Cl)SC1(CCC1)CN2 (stereo not shown) , Emax = < 50%

Lab entry: IL-6 in A549 cells stimulated with IL-1β assay, compound Cc1cc(Cl)ccc1C1SCCNc2c1c(-c1ccccn1)nn2C (stereo not shown) [D.1] , Emax = > 60%

Lab entry: IL-6 in A549 cells stimulated with IL-1β assay, compound Cc1ccc(C2SCCNc3c2c(-c2ccccn2)nn3C)c(C)c1 (stereo not shown) , Emax = < 50%

Lab entry: IL-6 in A549 cells stimulated with IL-1β assay, compound Cc1cc(Cl)ccc1[C@@H]1SC(C)(C)CNc2c1c(C)nn2C (single isomer, unassigned) , Emax = < 50%

Lab entry: IL-6 in A549 cells stimulated with IL-1β assay, compound Cc1cc(Cl)ccc1[C@H]1SC[C@H](C)Nc2c1c(-c1ccccn1)nn2C , Emax = < 50%

Lab entry: IL-6 in A549 cells stimulated with IL-1β assay, compound Cc1ccc(C)c(C2SCCNc3c2c(-c2ccccn2)nn3C)c1 (stereo not shown) , Emax = < 50%

Lab entry: IL-6 in A549 cells stimulated with IL-1β assay, compound Cc1ccc(Br)cc1C1SC(C)(C)CNc2c1c(C1CC1)nn2C (stereo not shown) , Emax = < 50%

Lab entry: IL-6 in A549 cells stimulated with IL-1β assay, compound Cc1cc(Cl)ccc1[C@H]1S[C@H](CCO)CNc2c1c(C)nn2C (single isomer, unassigned) , Emax = > 70%

Lab entry: IL-6 in A549 cells stimulated with IL-1β assay, compound CCn1nc(-c2ccccn2)c2c1NCCSC2c1ccc(C(=O)Nc2ccnn2C)cc1C (stereo not shown) , Emax = > 70%

Lab entry: IL-6 in A549 cells stimulated with IL-1β assay, compound CN(C)c1ccc(C2SCCNc3c2c(-c2ccccn2)nn3C)c(Cl)c1 (stereo not shown) , Emax = < 50%

Lab entry: IL-6 in A549 cells stimulated with IL-1β assay, compound Cc1nn(C)c2c1C(c1ccc(Cl)cc1Cl)[S+]([O-])C(C)(C)CN2 (stereo not shown) , Emax = < 50%

Lab entry: IL-6 in A549 cells stimulated with IL-1β assay, compound Cn1nc(-c2ccccn2)c2c1NCCSC2c1ccc(Cl)cc1C1CC1 (stereo not shown) , Emax = > 50%

Lab entry: IL-6 in A549 cells stimulated with IL-1β assay, compound Cc1cc(F)ccc1C1SCCNc2c1c(-c1ccccn1)nn2C (stereo not shown) , Emax = > 50%

Lab entry: IL-6 in A549 cells stimulated with IL-1β assay, compound Cc1sc(Br)cc1C1SCCNc2c1c(-c1ccccn1)nn2C (stereo not shown) , Emax = < 50%
